# Test system: PrP^Sc accumulation in persistently infected hTERT-ovine microglia
# Format: cell-based
# MEASUREMENT PARAMETERS: read-out: TC-EC50 (50% tissue culture effective concentration)
pEC50: −log10 of the molar value.
READOUT: pEC50

INSERT INTO assay_data (molecule, readout, observed_value) VALUES
  ('N=C(N)c1ccc(-c2ccc(-c3ccc(-c4nc5ccc(C(=N)N)cc5[nH]4)cc3)o2)nc1 [DB1264]', 'pEC50', 6.41),
  ('N=C(N)c1ccc2nc(-c3ccc(-c4nc5ccc(C(=N)N)cc5[nH]4)[se]3)[nH]c2c1 [DB1310]', 'pEC50', 6.39),
  ('N=C(N)c1ccc2nc(-c3ccc(-c4nc5ccc(C(=N)N)cc5[nH]4)[nH]3)[nH]c2c1 [DB192]', 'pEC50', 6.04),
  ('c1ccc2[nH]c(-c3ccc(-c4ccc(C5=NCCN5)cc4)s3)nc2c1 [DB932A]', 'pEC50', 6.41),
  ('Cn1c(-c2nc3ccc(C(=N)N)cc3[nH]2)ccc1-c1nc2ccc(C(=N)N)cc2[nH]1 [DB191]', 'pEC50', 6.31),
  ('N=C(N)c1ccc(-c2ccc(-c3ccc(-c4nc5ccc(C(=N)N)cc5[nH]4)cc3)s2)cc1 [DB2214]', 'pEC50', 6.59),
  ('N=C(N)c1ccc(-c2ccc(-c3cnc4ccc(C(=N)N)cc4c3)s2)cc1 [DB1504]', 'pEC50', 6.41),
  ('N=C(N)c1ccc2nc(-c3ccc(-c4nc5ccc(C(=N)N)cc5[nH]4)s3)[nH]c2c1 [DB1033]', 'pEC50', 6.24),
  ('Cn1c(-c2ccc(-c3ccc(C4=NCCN4)cc3)o2)nc2ccccc21 [DB948]', 'pEC50', 6.37),
  ('N=C(N)c1ccc2nc(-c3ccc(-c4ccc(OCc5cn(CCc6cccc7ccccc67)nn5)cc4)s3)[nH]c2c1 [DB2228]', 'pEC50', 6.70),
  ('N=C(N)c1ccc(-c2ccc(-c3nc4ccc(C(=N)N)cc4[nH]3)s2)cc1 [DB818A]', 'pEC50', 6.34),
  ('c1ccc2[nH]c(-c3ccc(-c4ccc(C5=NCCN5)cc4)o3)nc2c1 [DB772]', 'pEC50', 6.10);

====

Recorded Selectivity index (CC50/TC-EC50) for the following compounds
# Test system: PrP^Sc accumulation in persistently infected hTERT-ovine microglia
# Assay type: cell-based
Marks after values point to notes of the source that are not given here.
READOUT: Selectivity index (CC50/TC-EC50)

INSERT INTO assay_data (compound, readout, observed_value) VALUES
  ('N=C(N)c1ccc2nc(-c3ccc(-c4nc5ccc(C(=N)N)cc5[nH]4)s3)[nH]c2c1 [DB1033]', 'Selectivity index (CC50/TC-EC50)', '>5.4^e'),
  ('N=C(N)c1ccc(-c2ccc(-c3cnc4ccc(C(=N)N)cc4c3)s2)cc1 [DB1504]', 'Selectivity index (CC50/TC-EC50)', '>8.1^e'),
  ('N=C(N)c1ccc2nc(-c3ccc(-c4ccc(OCc5cn(CCc6cccc7ccccc67)nn5)cc4)s3)[nH]c2c1 [DB2228]', 'Selectivity index (CC50/TC-EC50)', '>15.8^e');

====

# PROCEDURE TEXT: in vitro
# MEASUREMENT PARAMETERS: sheep
READOUT: CC50

INSERT INTO assay_data (compound, observed_value) VALUES
  ('N=C(N)c1ccc(-c2ccc(-c3nc4ccc(C(=N)N)cc4[nH]3)s2)cc1 [DB818A]', '> 3.16 µM'),
  ('N=C(N)c1ccc2nc(-c3ccc(-c4nc5ccc(C(=N)N)cc5[nH]4)[se]3)[nH]c2c1 [DB1310]', '> 3.16 µM'),
  ('c1ccc2[nH]c(-c3ccc(-c4ccc(C5=NCCN5)cc4)s3)nc2c1 [DB932A]', '2.5 µM'),
  ('c1ccc2[nH]c(-c3ccc(-c4ccc(C5=NCCN5)cc4)o3)nc2c1 [DB772]', '3.8 µM'),
  ('Cn1c(-c2nc3ccc(C(=N)N)cc3[nH]2)ccc1-c1nc2ccc(C(=N)N)cc2[nH]1 [DB191]', '> 3.16 µM'),
  ('N=C(N)c1ccc2nc(-c3ccc(-c4nc5ccc(C(=N)N)cc5[nH]4)s3)[nH]c2c1 [DB1033]', '> 3.16 µM'),
  ('Cn1c(-c2ccc(-c3ccc(C4=NCCN4)cc3)o2)nc2ccccc21 [DB948]', '1.5 µM'),
  ('N=C(N)c1ccc2nc(-c3ccc(-c4nc5ccc(C(=N)N)cc5[nH]4)[nH]3)[nH]c2c1 [DB192]', '> 3.16 µM');

====

# PROCEDURE TEXT: in vitro
# MEASUREMENT PARAMETERS: sheep, % cell viability
READOUT: viability at 1 µM (%)

INSERT INTO measurements (compound, readout, observed_value) VALUES
  ('N=C(N)c1ccc2nc(-c3ccc(-c4ccc(-c5ccccc5)cc4)o3)[nH]c2c1', 'viability at 1 µM', 115),
  ('N=C(N)c1ccc(-c2ccc(-c3nc4ccc(C(=N)N)cc4[nH]3)s2)cc1 [DB818A]', 'viability at 1 µM', 170),
  ('Cc1cc(C(=N)N)ccc1-c1ccc(-c2nc3ccc(C(=N)N)cc3[nH]2)o1', 'viability at 1 µM', 154),
  ('N=C(N)c1ccc(-c2ccc(-c3nc4ccc(C(=N)N)cc4[nH]3)o2)cc1', 'viability at 1 µM', 135),
  ('N=C(N)c1ccc2nc(-c3ccc(-c4ccc(C(=N)N)c(F)c4)o3)[nH]c2c1', 'viability at 1 µM', 126),
  ('N=C(N)c1ccc2nc(-c3ccc(-c4nc5ccc(C(=N)N)cc5[nH]4)[nH]3)[nH]c2c1', 'viability at 1 µM', 150),
  ('N=C(N)c1ccc2nc(-c3ccc(-c4nc5ccc(C(=N)N)cc5[nH]4)s3)[nH]c2c1', 'viability at 1 µM', 91),
  ('N=C(N)c1ccc(-c2ccc(-c3cnc4ccc(C(=N)N)cc4c3)s2)cc1', 'viability at 1 µM', 156),
  ('N=C(N)c1ccc2nc(-c3ccc(-c4ccc(C(N)=O)cc4)o3)[nH]c2c1', 'viability at 1 µM', 120),
  ('N=C(N)c1ccc2nc(-c3ccc(-c4ccc(C(N)=O)cc4)s3)[nH]c2c1', 'viability at 1 µM', 127),
  ('c1ccc2[nH]c(-c3ccc(-c4ccc(C5=NCCN5)cc4)s3)nc2c1 [DB932A]', 'viability at 1 µM', 81),
  ('N=C(N)c1ccc2nc(-c3ccc(-c4nc5ccc(C(=N)N)cc5[nH]4)[se]3)[nH]c2c1', 'viability at 1 µM', 110),
  ('N=C(N)c1ccc2nc(-c3ccc(-c4ccc(-c5nc6ccc(C(=N)N)cc6[nH]5)o4)cc3)[nH]c2c1', 'viability at 1 µM', 102),
  ('c1cc(-c2ccc(-c3nc4ccc(C5=NCCN5)cc4[nH]3)o2)ccc1C1=NCCN1', 'viability at 1 µM', 205),
  ('N=C(N)c1ccc(-c2ccc(-c3ccc(-c4nc5ccc(C(=N)N)cc5[nH]4)cc3)o2)nc1', 'viability at 1 µM', 138),
  ('Nc1cccc(-c2ccc(-c3nc4ccc(C5=NCCN5)cc4[nH]3)o2)c1', 'viability at 1 µM', 125),
  ('N=C(N)c1ccc(-c2ccc(-c3nc4ccccc4[nH]3)o2)cc1', 'viability at 1 µM', 98),
  ('Cn1c(-c2ccc(-c3ccc(C4=NCCN4)cc3)o2)nc2ccccc21', 'viability at 1 µM', 60);

====

# Tested on: PrP^Sc accumulation in persistently infected hTERT-ovine microglia
# Assay type: cell-based
Marks after values point to notes of the source that are not given here.
Recorded Selectivity index (CC50/TC-EC50) for the following molecules
READOUT: Selectivity index (CC50/TC-EC50)

INSERT INTO assay_data (compound_structure, target_desc, observed_value) VALUES
  ('N=C(N)c1ccc(-c2ccc(-c3ccc(-c4nc5ccc(C(=N)N)cc5[nH]4)cc3)o2)nc1', 'PrP^Sc accumulation in persistently infected hTERT-ovine microglia', '>8.1^e'),
  ('N=C(N)c1ccc2nc(-c3ccc(-c4nc5ccc(C(=N)N)cc5[nH]4)[se]3)[nH]c2c1', 'PrP^Sc accumulation in persistently infected hTERT-ovine microglia', '>7.7^e'),
  ('Cn1c(-c2nc3ccc(C(=N)N)cc3[nH]2)ccc1-c1nc2ccc(C(=N)N)cc2[nH]1', 'PrP^Sc accumulation in persistently infected hTERT-ovine microglia', '>6.4^e'),
  ('N=C(N)c1ccc2nc(-c3ccc(-c4nc5ccc(C(=N)N)cc5[nH]4)[nH]3)[nH]c2c1', 'PrP^Sc accumulation in persistently infected hTERT-ovine microglia', '>3.5^e');
